- EXPERIMENTAL_SYSTEM: African swine fever virus major capsid protein p72 (p72 capsomer, trimer) (African swine fever virus, UniProt P22776)
- ASSAY_NOTES: SPR
QUANTITY_NAME: koff
Answer shape: numeric part, then the unit.

>>> data_value("porcine antibody G6 (class IV) (Fab, V domains shown) VH: EVKLVESGGGLVQPGGSLTLSCVGSGYTFSSYPICWVRQAPGKGLEWLSCIDSSGSKMHLADSVLSRFTISKDNSQNTAYLQMNSLRTEDTARYYCARGRWCYGVICDMDLWGPGVEVVVSS VL: IVLTQTPLSLSVSPGEPASISCRSSQSLEEYGKNWLSWYQQKPGQSPRLLIYQATNRASWVPERFSGSGSGTDFTLKISRVEAEDAGVYYCQQYKEFPWTFGQGTKLELK")
"0.00952 s⁻¹"
>>> data_value("porcine antibody B1 (class I) (Fab, V domains shown) VH: EVKLVESGGGLVQPGGSLKLSCVGSGSTFSSDAVSWVRQAPGKGLEWLAGIDGDGGGGSTYYADSVKGRFTISRDNSQKTAYLQMNSLRTDDTARYYCAECPMVLLAKCSMEFWGPGVEVVVS VL: DIVLTQTPRSLSVSPGEPASISCRSSQSLEEYGKNWLSWYQQKPGQSPRLLIYQATNRASWVPERFSGSGSGTDFTLKISRVEAEDVGVYYCFQDLQPPNGFGAGTKLELK")
"7.08e-05 s⁻¹"

Now look at this entry.
Consider the binder porcine antibody F11 (class II) (Fab, V domains shown) VH: EEKLVESGGGLVKPGGSLKLSCVGSGSTFSSDAVSWVRQAPGKGLEWLAGIDGDGYGVSTYYADSVKGRFTISRDNSQKTAYLQMNSLRTDDTARYYCAECPMVLLAKCSMEFWGPGVEVVVSS VL: QTVIQEPAMSVSLGGTVTLTCAFSSGSVTSSNYPGWFQQTPGQPPRLLIYQTNSRPTGVPSRFSGAISGNRAALTITGAQAEDEADYFCGLWKSGTDLPFGGGTHLTVL and give its measured koff.
0.000267 s⁻¹
